Entries and their koff
system-under-test: T1, Human complement Factor D, mature (human, UniProt P00746 27-253)
T1 construct: In the TR-FRET assay the factor D was bought from Complement Technology; In the hemolysis assay it was the factor D of C1q-depleted human serum; also called human Factor D; hFD
T1 sequence (P00746 27-253): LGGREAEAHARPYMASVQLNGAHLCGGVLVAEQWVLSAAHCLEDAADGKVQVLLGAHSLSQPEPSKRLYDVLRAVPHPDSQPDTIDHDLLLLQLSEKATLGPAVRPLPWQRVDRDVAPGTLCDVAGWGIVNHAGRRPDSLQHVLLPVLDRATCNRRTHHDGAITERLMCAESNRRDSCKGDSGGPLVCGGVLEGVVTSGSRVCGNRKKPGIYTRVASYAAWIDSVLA
procedure-text: SPR (Biacore T200): Fab captured with anti-huFab kit, human Factor D injected, 25 C, 1:1 model;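 also: sensorgrams were corrected by subtracting a blank injection of running buffer before fitting kinetic and affinity constants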
measured-endpoint: koff (s⁻¹)

{"binder": "AFD.v14 Fab (Fab, V domains shown, Variant of lampalizumab; also called SIESD.N103S) VH: EVQLVQSGPELKKPGASVKVSCKASGYTFTNYGMNWVRQAPGQGLEWMGWINTYTGETTYAEDFKGRFVFSLDTSVSTAYLQISSLKAEDTAVYYCEREGGVSNWGQGTLVTVSS VL: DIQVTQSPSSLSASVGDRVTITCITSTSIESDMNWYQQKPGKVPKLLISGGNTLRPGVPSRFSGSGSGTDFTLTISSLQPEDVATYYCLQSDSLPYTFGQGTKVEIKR", "test-result": 0.00021}
{"binder": "hu20D12.v2.8 Fab (Fab, V domains shown) VH: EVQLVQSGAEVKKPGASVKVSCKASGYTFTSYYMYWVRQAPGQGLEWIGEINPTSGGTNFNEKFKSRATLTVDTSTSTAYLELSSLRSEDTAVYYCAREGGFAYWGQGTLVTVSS VL: DIQMTQSPSSLSASVGDRVTITCKASQNVDTDVAWFQQKPGKAPKGLIQSASSRYSGVPSRFSGSGSGTDFTLTISSLQPEDFATYYCQQYNNYPLTFGQGTKVEIKR", "test-result": 0.004}
{"binder": "hu20D12.v2.3 Fab (Fab, V domains shown) VH: EVQLVQSGAEVKKPGASVKVSCKASGYTFTSYYMYWVRQAPGQGLEWIGEINPYSGDTNFNEKFKSRATLTVDTSTSTAYLELSSLRSEDTAVYYCAREGGFAYWGQGTLVTVSS VL: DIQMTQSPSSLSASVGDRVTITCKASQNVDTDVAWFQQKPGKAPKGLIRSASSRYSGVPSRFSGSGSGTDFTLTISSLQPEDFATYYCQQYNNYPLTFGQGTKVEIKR", "test-result": "2.9e-05"}
